Experiment: protein stability index of a GFP-peptide fusion (yeast GPS) (PSI 1-4); higher = more stable; sorted into four equal gates, so the index is relative within each strain
Settings: san1∆
Recorded protein stability index, one value per entry.
Output spec: single numeric token, no unit.

Below, 8 sequences whose answers are already recorded.
* EVDYEDKDNPVDSRNET [SRB4] | 3.47
* QTQREKAPLQPNSERET [IRR1] | 3.06
* SQEQGMGMDLYKTSKAA [FAS1] | 2.72
* EILNECHDELKALPMLE [MED4] | 2.59
* DALRRGMLAMASLHSKE [MED4] | 2.24
* EISPQDSIASVLSPDSN [GAL11] | 2.98
* KSMLSKPETLSIGKNPF [SWI3] | 2.6
* VHDKIWCCRSGSAADTQ [PRE3] | 2.64

Please give measured protein stability index of the following entry: VSLCAKNMGLVPMKEEN [SSN2] 1.99

Please give measured protein stability index of the following entry: GQLLKDHLIIEPEEEKS [ARP9] 1.6

Please give measured protein stability index of the following entry: ASPSAHTSSSDGNNEIF [RPN4] 2.61

Please give measured protein stability index of the following entry: YDSRTTIFSPEGRLYQV [PRE9] 2.97

Please give measured protein stability index of the following entry: KTYALESINNVVDQLWS [RPN2] 2.7

Please give measured protein stability index of the following entry: LTNGVTEHVRQNAKLLA [RRP6] 1.99

Please give measured protein stability index of the following entry: SRPATTTRNGFMEAQGA [FAS2] 2.48

###

Assay: protein stability index of a GFP-peptide fusion (yeast GPS) (PSI 1-4); higher = more stable; sorted into four equal gates, so the index is relative within each strain
Conditions: doa10∆
Experimental readout: protein stability index
Output spec: single numeric token, no unit.

Please give measured protein stability index of the following entry: DASPAPSNESCSPWSLQ [SRB5] 2.72

Please give measured protein stability index of the following entry: FSHSLTTILSFSSPAAL [NUT1] 1.46

Please give measured protein stability index of the following entry: DAVLKIFSFHQDSIFQR [SRB8] 3.12

Please give measured protein stability index of the following entry: LQYANNAVISHANAAAV [SIN4] 1.83

Please give measured protein stability index of the following entry: PSQGVHYKVPTDTSTTA [MED6] 2.34

Please give measured protein stability index of the following entry: DLNHVTEELQTQYATSQ [SMC2] 3.11

###

Assay: protein stability index of a GFP-peptide fusion (yeast GPS) (PSI 1-4); higher = more stable; sorted into four equal gates, so the index is relative within each strain
Details: pdr5∆
Recorded protein stability index, one value per entry.
Output spec: single numeric token, no unit.

Below, 3 sequences whose answers are already recorded.
* FKQSNSETFLQFYVKRW [CDC53] | 2.96
* LDIKRVGSENVECTISI [SNF12] | 2.78
* SIEVQSLPEFFTNRIPS [SWI3] | 2.66

Please give measured protein stability index of the following entry: TYDENDDFFKELAKEAK [ESC2] 2.83

Please give measured protein stability index of the following entry: DTSNWELSDSWRAHDSS [YGL100W/SEH1] 3.37

Please give measured protein stability index of the following entry: PFMLQWGIPLIKELRSK [FAS1] 1.63

Please give measured protein stability index of the following entry: RKQIDETQVLVSTPEKW [BRR2] 2.46

Please give measured protein stability index of the following entry: RDHEKDTYRTLMEEIES [YIL149C/MLP2] 3.38

Please give measured protein stability index of the following entry: IYDFITLFSSIEPQVIN [ECM29] 2

Please give measured protein stability index of the following entry: QNIMTLPDGKNGNLEEE [MED6] 3.23

Please give measured protein stability index of the following entry: GGADQVTRTQQWSMVAQ [SWI1] 3.31

Please give measured protein stability index of the following entry: EDLHEKNDSAEVRQETQ [NUT1] 3.28

Please give measured protein stability index of the following entry: KCGVISPRFNVKIGDIE [RPS22A] 3.35

Please give measured protein stability index of the following entry: VIFVERATPATLTELKD [SRB2] 2.02
